- run-parameters: 279 patients, tamoxifen 20 mg daily, plasma, UPLC-MS/MS
assay-metric: Steady-state plasma concentration, Mean (ng/mL)

Example molecules with recorded Steady-state plasma concentration, Mean:
{"columns": ["molecule", "Steady-state plasma concentration, Mean (ng/mL)"],
 "data": [
  ["CC/C(=C(\\c1ccc(O)cc1)c1ccc(OCCN(C)C)cc1)c1ccccc1 [(Z)-4-OH-Tam, (Z)-4-hydroxy-tamoxifen]", 2.5],
  ["CC/C(=C(/c1ccc(OCCN(C)C)cc1)c1ccc(O[C@@H]2O[C@H](C(=O)O)[C@@H](O)[C@H](O)[C@H]2O)cc1)c1ccccc1 [(E)-4-OH-Tam-O-gluc]", 0.23],
  ["CC(O)/C(=C(\\c1ccccc1)c1ccc(OCCN(C)C)cc1)c1ccccc1 (stereo not drawn) [(E)-α-OH-Tam, (E)-α-hydroxy-tamoxifen]", 0.36],
  ["CC(O)/C(=C(/c1ccccc1)c1ccc(OCCN(C)C)cc1)c1ccccc1 (stereo not drawn) [(Z)-α-OH-Tam, (Z)-α-hydroxy-tamoxifen]", 0.04],
  ["CCC(=C(c1ccccc1)c1ccc(OCCNC)cc1)c1ccc(O)cc1 [4′-OH-NDM-Tam, 4’-hydroxy-N-desmethyl-tamoxifen]", 3.84],
  ["CCC(=C(c1ccc(OCCNC)cc1)c1ccc(O[C@@H]2O[C@H](C(=O)O)[C@@H](O)[C@H](O)[C@H]2O)cc1)c1ccccc1 (mixture of isomers) [(E/Z)-4-OH-NDM-Tam-gluc]", 1.12],
  ["CCC(=C(c1ccccc1)c1ccc(OCC[N+](C)(C)C2OC(C(=O)[O-])C(O)C(O)C2O)cc1)c1ccccc1 (mixture of isomers) [(E/Z)-Tam-N-gluc, Tamoxifen-N-β-D-glucuronide]", 0.32]
]}

A = CCC(=C(c1ccccc1)c1ccc(OCCN(C)C)cc1)c1ccc(O)cc1 [4′-OH-Tam, 4’-hydroxy-tamoxifen]
B = CC/C(=C(\c1ccccc1)c1ccc(OCCN(C)C)cc1)c1ccccc1
Query: Given A and given B , which shows the smaller recorded Steady-state plasma concentration, Mean? Please indicate the selected item by its label.
Reply: A
(A: 3.13 ng/mL, B: 173.53 ng/mL)

###

- run-parameters: Patient ID 133, CYP2D6 functional group EM/IM
assay-metric: plasma concentration (ng/mL)

1 = CC(O)C(=C(c1ccccc1)c1ccc(OCCN(C)C)cc1)c1ccccc1 (racemic) [(Z)-a-OH-Tam]
2 = CCC(=C(c1ccccc1)c1ccc(OCCNC)cc1)c1ccc(O)cc1
3 = CC/C(=C(\c1ccccc1)c1ccc(OCCN(C)C)cc1)c1ccccc1
4 = CC(O)C(=C(c1ccccc1)c1ccc(OCCN(C)C)cc1)c1ccccc1 (racemic) [(E)-a-OH-Tam]
Query: Endpoint returns the given compounds ordered by ascending plasma concentration. Rank them, then answer with their labels in that order.
Reply: 1, 4, 2, 3

###

- run-parameters: Patient ID 202, CYP2D6 functional group EM/IM
assay-metric: plasma concentration (ng/mL)

Example compounds with recorded plasma concentration:
{"columns": ["compound", "plasma concentration (ng/mL)"],
 "data": [
  ["CC/C(=C(\\c1ccccc1)c1ccc(OCCN(C)C)cc1)c1ccccc1", 217.55],
  ["CC/C(=C(\\c1ccccc1)c1ccc(OCCN(C)C)cc1)c1ccc(O)cc1", 2.62]
]}

a = CCC(=C(c1ccccc1)c1ccc(OCCNC)cc1)c1ccc(O)cc1
b = CC/C(=C(\c1ccc(O)cc1)c1ccc(OCCNC)cc1)c1ccccc1 [(Z)-Endoxifen 3-OH-NDM-Tam]
c = CC/C(=C(/c1ccc(OCCNC)cc1)c1ccc(O[C@@H]2O[C@H](C(=O)O)[C@@H](O)[C@H](O)[C@H]2O)cc1)c1ccccc1
Query: Exam item: list the entries in increasing order of plasma concentration. Rank them, then answer with their labels in that order.
Reply: c, a, b
(c: 0.869 ng/mL, a: 2.521 ng/mL, b: 5.63 ng/mL)

###

- run-parameters: Patient ID 134, CYP2D6 functional group EM/EM
assay-metric: plasma concentration (ng/mL)

{"columns": ["compound", "quantity-unit", "plasma concentration"],
 "data": [
  ["CC/C(=C(\\c1ccccc1)c1ccc(OCCN(C)C)cc1)c1ccc(O)cc1", "ng/mL", 1.33],
  ["CC/C(=C(/c1ccc(OCCNC)cc1)c1ccc(O[C@@H]2O[C@H](C(=O)O)[C@@H](O)[C@H](O)[C@H]2O)cc1)c1ccccc1", "ng/mL", 3.144],
  ["CCC(=C(c1ccccc1)c1ccc(OCCNC)cc1)c1ccc(O)cc1", "ng/mL", 1.134],
  ["CC(O)C(=C(c1ccccc1)c1ccc(OCCN(C)C)cc1)c1ccccc1 (racemic) [(Z)-a-OH-Tam]", "ng/mL", 0]
]}

A = CC(O)C(=C(c1ccccc1)c1ccc(OCCN(C)C)cc1)c1ccccc1 (racemic) [(E)-a-OH-Tam]
B = CC/C(=C(\c1ccccc1)c1ccc(OCCN(C)C)cc1)c1ccccc1
C = CC/C(=C(\c1ccc(O)cc1)c1ccc(OCCNC)cc1)c1ccccc1 [(Z)-Endoxifen 3-OH-NDM-Tam]
Query: Exam item: list the entries in increasing order of plasma concentration. Rank them, then answer with their labels in that order.
Reply: A, C, B
(A: 0.271 ng/mL, C: 3.35 ng/mL, B: 114.64 ng/mL)

###

- run-parameters: Patient ID 154, CYP2D6 functional group EM/EM
assay-metric: plasma concentration (ng/mL)

{"columns": ["compound", "quantity-unit", "experimental-result"],
 "data": [
  ["CC(O)C(=C(c1ccccc1)c1ccc(OCCN(C)C)cc1)c1ccccc1 (racemic) [(Z)-a-OH-Tam]", "ng/mL", 0]
]}

P = CC/C(=C(/c1ccc(OCCNC)cc1)c1ccc(O[C@@H]2O[C@H](C(=O)O)[C@@H](O)[C@H](O)[C@H]2O)cc1)c1ccccc1
Q = CC(O)C(=C(c1ccccc1)c1ccc(OCCN(C)C)cc1)c1ccccc1 (racemic) [(E)-a-OH-Tam]
Query: Endpoint returns whichever of P and Q has the numerically higher plasma concentration. Please indicate the selected item by its label.
Reply: P
(P: 1.214 ng/mL, Q: 0.290 ng/mL)

###

- run-parameters: Patient ID 171, CYP2D6 functional group EM/EM
assay-metric: plasma concentration (ng/mL)

Example compounds with recorded plasma concentration:
{"columns": ["compound", "experimental-result"],
 "data": [
  ["CC/C(=C(\\c1ccc(O)cc1)c1ccc(OCCNC)cc1)c1ccccc1 [(Z)-Endoxifen 3-OH-NDM-Tam]", 16.73],
  ["CCC(=C(c1ccccc1)c1ccc(OCCNC)cc1)c1ccc(O)cc1 [4'-OH-NDM-Tam]", 7.098],
  ["CC/C(=C(\\c1ccccc1)c1ccc(OCCN(C)C)cc1)c1ccccc1 [Tamoxifen]", 296.02]
]}

1 = CC/C(=C(/c1ccc(OCCNC)cc1)c1ccc(O[C@@H]2O[C@H](C(=O)O)[C@@H](O)[C@H](O)[C@H]2O)cc1)c1ccccc1 [4-OH-NDM-Tam-Gluc]
2 = CC/C(=C(\c1ccccc1)c1ccc(OCCN(C)C)cc1)c1ccc(O)cc1 [4'-OH-Tam]
Query: Given 1 and given 2 , which shows the smaller recorded plasma concentration? Please indicate the selected item by its label.
Reply: 1

###

- run-parameters: Patient ID 203, CYP2D6 functional group PM/PM
assay-metric: plasma concentration (ng/mL)

Example compounds with recorded plasma concentration:
{"columns": ["compound", "experimental-result"],
 "data": [
  ["CCC(=C(c1ccccc1)c1ccc(OCCNC)cc1)c1ccc(O)cc1 [4'-OH-NDM-Tam]", 4.756],
  ["CC/C(=C(\\c1ccccc1)c1ccc(OCCN(C)C)cc1)c1ccc(O)cc1 [4'-OH-Tam]", 3.42]
]}

P = CC/C(=C(/c1ccc(OCCNC)cc1)c1ccc(O[C@@H]2O[C@H](C(=O)O)[C@@H](O)[C@H](O)[C@H]2O)cc1)c1ccccc1 [4-OH-NDM-Tam-Gluc]
Q = CC/C(=C(\c1ccc(O)cc1)c1ccc(OCCNC)cc1)c1ccccc1 [(Z)-Endoxifen 3-OH-NDM-Tam]
Query: Endpoint returns whichever of P and Q has the numerically higher plasma concentration. Please indicate the selected item by its label.
Reply: Q
(Q: 1.10 ng/mL, P: 0.319 ng/mL)

###

- run-parameters: Patient ID 205, CYP2D6 functional group EM/IM
assay-metric: plasma concentration (ng/mL)

{"columns": ["compound", "assay-metric", "experimental-result"],
 "data": [
  ["CC/C(=C(\\c1ccc(O)cc1)c1ccc(OCCNC)cc1)c1ccccc1 [(Z)-Endoxifen 3-OH-NDM-Tam]", "plasma concentration", 4.03]
]}

P = CC/C(=C(\c1ccccc1)c1ccc(OCCN(C)C)cc1)c1ccc(O)cc1
Q = CC/C(=C(/c1ccc(OCCNC)cc1)c1ccc(O[C@@H]2O[C@H](C(=O)O)[C@@H](O)[C@H](O)[C@H]2O)cc1)c1ccccc1
Query: Endpoint returns whichever of P and Q has the numerically higher plasma concentration. Please indicate the selected item by its label.
Reply: P
(P: 5.34 ng/mL, Q: 1.005 ng/mL)

The origin of these recorded values is paper PMC4522133.
